B1: PhoQ; a variant is named by its letters at X, in order, P23837 (parent)
chain: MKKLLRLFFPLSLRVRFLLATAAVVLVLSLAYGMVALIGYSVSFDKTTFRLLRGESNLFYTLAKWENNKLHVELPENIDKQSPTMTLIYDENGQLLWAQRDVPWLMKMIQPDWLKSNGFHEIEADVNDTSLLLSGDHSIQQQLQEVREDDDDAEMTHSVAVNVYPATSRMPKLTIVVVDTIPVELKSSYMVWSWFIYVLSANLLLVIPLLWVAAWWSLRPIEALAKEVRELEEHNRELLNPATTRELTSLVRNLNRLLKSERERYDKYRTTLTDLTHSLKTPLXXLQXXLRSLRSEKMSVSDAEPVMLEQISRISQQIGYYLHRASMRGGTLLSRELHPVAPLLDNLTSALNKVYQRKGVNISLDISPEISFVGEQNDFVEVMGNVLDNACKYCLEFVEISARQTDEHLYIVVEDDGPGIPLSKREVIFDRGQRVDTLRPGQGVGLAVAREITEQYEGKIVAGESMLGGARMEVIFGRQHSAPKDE

- Variants of: B1
- assay remarks: enrichment ratio after two sorts for PhoP signalling (ratio (wild type AVST 3.29)); higher = more functional
- condition notes: with PhoP (E. coli)
Whole data set: some 140,000 sequences, median “enrichment ratio after two sorts for PhoP signalling” near 0, cut for the highest 2% near 11. The entries come from a sample that favours the highest values as a whole.
Please provide measured enrichment ratio for the entries that follow.

Solved entries (count: 3):
| mutation id | parameter | measured value |
| --- | --- | --- |
| ATAN | enrichment ratio | 29.1 |
| VKCV | enrichment ratio | ≤ 0.25 |
| TEAF | enrichment ratio | 13.8 |

Below are 7 variants. Give each one its enrichment ratio.
1. KYTR
2. GCNG
3. LGWN
4. TWGR
5. STMK
6. YSRD
7. TMFE

["≤ 0.25", "≤ 0.25", "≤ 0.25", "≤ 0.25", 9.3, "≤ 0.25", "≤ 0.25"]

// enrichment ratio lookup, variant = `ALMP` , result: ≤ 0.25
